Where do the numbers come from? From the RNAGym collection of RNA variant scans (doi:10.1101/gad.245936.114).

Below: a set of entries, each annotated with reported nonsense suppression.
B1: tRNA (parent)
chain: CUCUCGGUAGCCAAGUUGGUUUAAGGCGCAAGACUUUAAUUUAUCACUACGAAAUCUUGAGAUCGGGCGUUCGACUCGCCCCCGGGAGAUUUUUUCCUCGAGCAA

# Variants of: B1
# ASSAY_OVERVIEW: nonsense suppression (GFP-seq) (ratio to wild type); higher = more function; SUP4oc tRNA, yeast GFP reporter sort-seq
This sample holds only a part of the variants without activity.
READOUT_TYPE: nonsense suppression

{"columns": ["VARIANT_DESCRIPTION", "VALUE_RELATION_SIGN", "ENDPOINT_VALUE"],
 "data": [
  ["A9C U35A", "≤", 0.026],
  ["U2G C11A A74C G84C", "≤", 0.026],
  ["A9U C64U", "=", 0.0349],
  ["U4C A31U U57G G88U", "≤", 0.026],
  ["C5A A23C A31G G61A", "≤", 0.026],
  ["A9U C77U", "=", 0.0389],
  ["U4C C34G C82U", "=", 0.179],
  ["A13G U16G", "=", 0.207],
  ["C11A U71A", "≤", 0.026],
  ["G73A G88A", "=", 0.0281],
  ["A9C U20G U21G G86A", "≤", 0.026],
  ["G28A U76C", "=", 1.09],
  ["A13U U20A", "=", 0.189],
  ["C1A A24C A60C U63G C72G C77G", "≤", 0.026],
  ["A54C", "=", 1.16],
  ["C5U A23G G26C G78A", "≤", 0.026],
  ["U2G U16G U22G A23U", "≤", 0.026],
  ["U8A A9G U58A C72G C79A", "≤", 0.026],
  ["A31G A87G", "=", 0.762],
  ["A23U G86A", "≤", 0.026],
  ["A13G U16A", "=", 0.0391],
  ["A33G U76G", "≤", 0.026],
  ["G25C", "=", 0.185],
  ["G73A G85A", "=", 1.03],
  ["G61A C75A", "=", 0.842],
  ["A54C A60U", "=", 1.09],
  ["G18A U20G", "=", 0.905],
  ["C27G U55A A60C", "=", 0.809],
  ["A14U U63A", "=", 0.0439],
  ["G7A U76C G88U", "≤", 0.026],
  ["A9U G86A", "=", 0.0496],
  ["A14G U35C", "≤", 0.026],
  ["A14U G25C C27U", "≤", 0.026],
  ["A23U C34U U35G", "≤", 0.026],
  ["A54U A62G", "=", 0.0321],
  ["A74G C81G", "≤", 0.026],
  ["U22C A87G", "=", 0.724],
  ["G61U C82U", "=", 0.73],
  ["U2G U55G", "≤", 0.026],
  ["U17G A23C", "≤", 0.026],
  ["U63A G66U U71A A87G", "≤", 0.026],
  ["A9C A60U", "=", 0.575],
  ["C3U U20G G85A", "=", 0.214],
  ["C1G C29A C34U", "≤", 0.026],
  ["U76A C77A", "≤", 0.026],
  ["C3U U8G A54U U58G C83U", "≤", 0.026]
]}
